IC50: recorded values
target: full-length beta-Catenin (Uniprot ID P35222) (Homo sapiens (Human)) (UniProt P35222); assay: fluorescence polarization competition; full-length beta-catenin, competitor 5FAM-TCF4 10-53
Starred links: 1 amine or outer side, 2 acyl side, 3 side chain; linkers in the order of their positions; H or OH if unused. Positions of bridges follow the written chain, without caps; N, C: chain ends. Non-standard residues stand in square brackets, D forms with d. Primed or numbered codes have the meaning given here. *: point of attachment. PyrS2″ = (S)-3-amino-1-((pent-4-en-1-yloxy)carbonyl)pyrrolidine-3-carboxylic acid (stapling residue), C=CCCCOC(=O)N1CC[C@@](N[*:1])(C(=O)[*:2])C1; Tf = trifluoromethylsulfonyl on Dap side-chain N ([Tf]Dap = (S)-2-amino-3-((trifluoromethyl)sulfonamido)propanoic acid), O=S(=O)(C(F)(F)F)*; B5(4) = 2,2-bis(4-pentenyl)glycine = 2-amino-2-(pent-4-en-1-yl)hept-6-enoic acid (stitching residue), C=CCCCC(CCCC=C)(N[*:1])C(=O)[*:2]; B5(5) = 2,2-bis(4-pentenyl)glycine, 2-amino-2-(pent-4-en-1-yl)hept-6-enoic acid (stitching residue), C=CCCCC(CCCC=C)(N[*:1])C(=O)[*:2]; Phe(2-Cl) = N[C@@H](Cc1ccccc1Cl)C(=O)O; Phe(2-F) = N[C@@H](Cc1ccccc1F)C(=O)O; Bta = N[C@@H](Cc1csc2ccccc12)C(=O)O; αAllylPro = C=CC[C@@]1(C(=O)O)CCCN1; tBuAla = CC(C)(C)C[C@H](N)C(=O)O; S8 = C=CCCCCCC[C@](C)(N)C(=O)O; Dap = NC[C@H](N)C(=O)O
Supply the numeric figure in nM, leaving out any unit text.

                                     binder  quantitative_result
0  Ac-[αAllylPro][Dap](Tf)I[B5(4)]DEAAFQ[S8]F[Bta]Q-NH2 (staple 1-4, 4-11) [I-632]                 5000
1  Ac-[αAllylPro]D[tBuAla][B5(5)]DDAAFT[PyrS2″][Phe(2-F)][Bta]Q-NH2 (staple 1-4, 4-11) [I-1021]                    5

**Query** State, in one line, measured IC50 of Ac-[αAllylPro]D[tBuAla][B5(5)]DDAAFS[PyrS2″][Phe(2-Cl)][Bta][dT]-NH2 (staple 1-4, 4-11) [I-1032]
**Result** 15
